experiment: physchem; conditions: pH 2.7
measure-name: log p
Write the value as a bare number.

Some solved entries appear below for comparison.
[[record]]
compound = "CC(C)Nc1nccc(-c2c[nH]nc2-c2ccc(Cl)s2)n1"
measure_name = "log p"
numeric_readout = 1.79

[[record]]
compound = "CCCn1nccc1-c1cc(C)cs1"
measure_name = "log p"
numeric_readout = 3.1

[[record]]
compound = "CCC(=O)Nc1cc(-c2cn(CC)nc2-c2cccs2)ccn1"
measure_name = "log p"
numeric_readout = 1.65

[[record]]
compound = "CC(C)n1ccc(-c2cc(Br)cs2)n1"
measure_name = "log p"
numeric_readout = 3.61

[[record]]
compound = "Clc1ccc(-c2n[nH]c(Br)c2-c2ccncc2)s1"
measure_name = "log p"
numeric_readout = 1.4

[[record]]
compound = "CCCc1cc(-c2cccs2)nn1C"
measure_name = "log p"
numeric_readout = 2.9

[[record]]
compound = "CC(=O)N(C(C)=O)c1cc(-c2cn(C(C)C)nc2-c2ccc(Cl)s2)ccn1"
measure_name = "log p"
numeric_readout = 3.33

[[record]]
compound = "CCn1ccc(-c2cccs2)n1"
measure_name = "log p"
numeric_readout = 2.14

[[record]]
compound = "Cc1csc(-c2nn(C)cc2I)c1"
measure_name = "log p"
numeric_readout = 3.18

[[record]]
compound = "CC#Cc1[nH]nc(-c2ccc(Cl)s2)c1-c1ccncc1"
measure_name = "log p"
numeric_readout = 1.44


Record CC(=O)Nc1cc(-c2cn(CC(C)C)nc2-c2ccc(Cl)s2)cc[n+]1[O-] , field log p: 2.86

Record CC(=O)Nc1nccc(-c2cn(C(C)C)nc2-c2ccc(Cl)s2)n1 , field log p: 2.59

Record CC(C)Cn1cc(-c2ccncc2)c(-c2ccc(Br)s2)n1 , field log p: 2.04

Record CN(C)C=CC(=O)c1cccs1 , field log p: 1.33

Record Fc1ccc(-c2n[nH]cc2-c2ccncc2)s1 , field log p: 0.57

Record CSc1nccc(CC(=O)c2ccc(Cl)s2)n1 , field log p: 2.98

Record CCC(C)n1cc(-c2ccnc(C#CC3CC3)c2)c(-c2ccc(Cl)s2)n1 (centres unmarked) , field log p: 4.56

----------
system: Pyrenophora teres; assay: In vivo test on Pyrenophora teres (barley net blotch); settings: dose of 500 ppm; barley plants; grading 12 days after contamination
measure-name: protection
Number first, unit second: that is the form wanted.

Some solved entries appear below for comparison.
[[record]]
compound = "CCC(C)n1cc(-c2ccnc(NC(=O)C(C)(C)O)c2)c(-c2ccc(Cl)s2)n1 (stereo not drawn) [Example 210]"
result = "70%"

[[record]]
compound = "CCC(C)n1cc(-c2ccnc(NC(=O)[C@H](C)O)c2)c(-c2ccc(Cl)s2)n1 (stereo partly drawn) [Example 204]"
result = "80%"

[[record]]
compound = "CC(C)n1cc(-c2ccnc(NC(=O)c3ccsc3)c2)c(-c2ccc(Cl)s2)n1 [Example 232]"
result = "80%"

[[record]]
compound = "CCOCCn1cc(-c2ccncc2)c(-c2ccc(Cl)s2)n1 [Example 364]"
result = "70%"

[[record]]
compound = "CC(=O)Nc1cc(-c2cn(CC(C)C)nc2-c2ccc(Cl)s2)ccn1 [Example 358]"
result = "80%"


Reported Pyrenophora teres protection for item CCOC(=O)Nc1cc(-c2cn(C(C)C)nc2-c2ccc(Cl)s2)ccn1 [Example 259] was 80%

Reported Pyrenophora teres protection for item CC(C)Cn1cc(-c2cc(N)ncn2)c(-c2ccc(Cl)s2)n1 [Example 423] was 75%

Reported Pyrenophora teres protection for item CCC(=O)Nc1cc(-c2cn(C(C)C)nc2-c2ccc(Cl)s2)ccn1 [Example 246] was 100%

Reported Pyrenophora teres protection for item CCn1cc(-c2ccnc(NC(=O)C(C)(C)O)c2)c(-c2ccc(Cl)s2)n1 [Example 212] was 80%

----------
conditions: pH 2.7
Marks after values point to notes of the source that are not given here.
measure-name: log p

Some solved entries appear below for comparison.
[[record]]
compound = "CC(C)Nc1nccc(-c2cn(CC(F)(F)F)nc2-c2ccc(Cl)s2)n1"
measure_name = "log p"
result = "3.11^[b]"

[[record]]
compound = "N#CCCn1cc(-c2ccncc2)c(-c2cc3ccsc3s2)n1"
measure_name = "log p"
result = "1.07^[b]"

[[record]]
compound = "CCn1cc(-c2ccnc(NC(=O)Cc3ccccc3)c2)c(-c2ccc(Cl)s2)n1"
measure_name = "log p"
result = "3.48^[b]"

[[record]]
compound = "Clc1ccc(-c2n[nH]cc2-c2ccncc2)s1"
measure_name = "log p"
result = "0.96^[b]"

[[record]]
compound = "CCn1cc(-c2ccnc(N)c2)c(-c2ccc(Cl)s2)n1"
measure_name = "log p"
result = "1.54^[b]"


Record FC(F)Cn1cc(-c2ccncc2)c(-c2sccc2Cl)n1 , field log p: 1.14^[b]

Record CCC(C)n1cc(-c2ccnc(NC(=O)CC3CC3)c2)c(-c2ccc(Cl)s2)n1 (centres unmarked) , field log p: 3.81^[b]

Record N#CCCn1cc(-c2ccncc2)c(-c2sccc2Cl)n1 , field log p: 0.86^[b]

Record CCn1cc(-c2ccncc2)c(-c2sccc2Cl)n1 , field log p: 1.14^[b]

Record CC(C)n1cc(-c2ccnc(NC(=O)N(C)C)c2)c(-c2ccc(Cl)s2)n1 , field log p: 1.97^[b]

Record Fc1ccc(-c2n[nH]cc2-c2ccncc2)s1 , field log p: 0.57^[b]

Record Cn1cc(-c2ccnc(NC(=O)C(C)(C)O)c2)c(-c2ccc(Cl)s2)n1 , field log p: 2.26^[b]

Record CCC(C)n1nc(-c2ccc(Cl)s2)c(-c2ccncc2)c1Br (centres unmarked) , field log p: 3.69^[b]

----------
details: pH 2.3
Marks after values point to notes of the source that are not given here.
Listing: log p of selected molecules

[[record]]
molecule = "C=CCNc1nccc(-c2cn(C(C)C)nc2-c2ccc(Cl)s2)n1 [Example 184]"
result = "3^[a]"

[[record]]
molecule = "CC(C)Cn1cc(-c2ccnc(N)n2)c(-c2ccc(Cl)s2)n1 [Example 95]"
result = "2.35^[a]"

[[record]]
molecule = "CC(CN(C)C)Cn1cc(-c2ccnc(Cl)c2)c(-c2ccc(Cl)s2)n1 (centres unmarked) [Example 91]"
result = "1.84^[a]"

[[record]]
molecule = "C#CCNc1nccc(-c2cn(C(C)C)nc2-c2ccc(Cl)s2)n1 [Example 180]"
result = "3.25^[a]"


Consider the record given below.
Record CCCNc1cc(-c2c[nH]nc2-c2ccc(Cl)s2)cc[n+]1[O-] [Example 71] , field log p: 1.9^[a]

----------
test system: Pyrenophora teres; experiment: In vivo test on Pyrenophora teres (barley net blotch); conditions: dose of 500 ppm; barley plants; grading 12 days after contamination
measure-name: protection (%)
Note: unit % is implicit; provide only the numeric part.

[[record]]
compound = "CCC(=O)Nc1cc(-c2c(-c3ccc(Cl)s3)nn(CC)c2C)ccn1"
numeric_readout = 95


Record CC(=O)N(C(C)=O)c1nccc(-c2cn(C(C)C)nc2-c2ccc(Cl)s2)n1 , field protection: 95

----------
settings: pH 2.7
Marks after values point to notes of the source that are not given here.
Listing: log p of selected compounds

Some solved entries appear below for comparison.
[[record]]
compound = "CCC(C)n1cc(-c2ccnc(NC(=O)c3ccsc3)c2)c(-c2ccc(Cl)s2)n1 (stereo not drawn)"
measure_name = "log p"
result = "4.21^[b]"

[[record]]
compound = "CC(C)n1ncc(-c2ccncc2)c1-c1ccc(Cl)s1"
measure_name = "log p"
result = "1.7^[b]"


Record N#Cc1ccccc1Cn1cc(-c2ccncc2)c(-c2ccc(Br)s2)n1 , field log p: 2.13^[b]

Record CC(=O)n1cc(-c2ccncn2)c(-c2ccc(Cl)s2)n1 , field log p: 2.92^[b]

Record Cn1cc(-c2ccnc(NC(=O)C3CCC3)c2)c(-c2ccc(Cl)s2)n1 , field log p: 2.52^[b]

Record CCn1cc(-c2ccnc(NC(C)C)n2)c(-c2ccc(Cl)s2)n1 , field log p: 2.39^[b]

Record O=C1OCCC1n1cc(-c2ccncc2)c(-c2cc3ccsc3s2)n1 (stereo not drawn) , field log p: 1.49^[b]

Record Cn1cc(-c2ccnc(NC(=O)C3CC3)c2)c(-c2ccc(Cl)s2)n1 , field log p: 2.16^[b]

Record C=CCn1cc(-c2ccncc2)c(-c2sccc2Cl)n1 , field log p: 1.22^[b]

----------
Listing: log p of selected compounds
settings: pH 2.7
Marks after values point to notes of the source that are not given here.

Some solved entries appear below for comparison.
[[record]]
compound = "FC(F)Cn1cc(-c2ccnc(Cl)c2)c(-c2ccc(Cl)s2)n1"
result = "3.71^[b]"

[[record]]
compound = "CCn1cc(-c2ccncc2)c(-c2cc3ccsc3s2)n1"
result = "1.57^[b]"

[[record]]
compound = "CC(C)n1cc(-c2ccncc2)c(-c2ccc(I)s2)n1"
result = "1.89^[b]"

[[record]]
compound = "FCCn1cc(-c2ccncc2)c(-c2cc3ccsc3s2)n1"
result = "1.45^[b]"

[[record]]
compound = "CCn1nc(-c2ccc(Cl)s2)c(-c2ccncc2)c1C"
result = "1.61^[b]"


Record COCn1cc(-c2ccncc2)c(-c2ccc(Cl)s2)n1 , field log p: 1.38^[b]

Record CCC(C)n1cc(-c2ccnc(NC(=O)c3ccccc3)c2)c(-c2ccc(Cl)s2)n1 (stereo not drawn) , field log p: 4.46^[b]

Record CCOC(=O)Nc1cc(-c2cn(C(C)CC)nc2-c2ccc(Cl)s2)ccn1 (stereo not drawn) , field log p: 3.92^[b]

Record CCOCCn1cc(-c2ccncc2)c(-c2sccc2Cl)n1 , field log p: 1.23^[b]
